# target_entity: Melanin-concentrating hormone receptor 1 (Homo sapiens, UniProt Q99705)
# protocol_text: Inhibitory activity against human constitutively activated Melanin concentrating hormone receptor 1 induced calcium flux stably expressed in HEK293 cells (n=6)
# Sequence (Q99705 whole entry): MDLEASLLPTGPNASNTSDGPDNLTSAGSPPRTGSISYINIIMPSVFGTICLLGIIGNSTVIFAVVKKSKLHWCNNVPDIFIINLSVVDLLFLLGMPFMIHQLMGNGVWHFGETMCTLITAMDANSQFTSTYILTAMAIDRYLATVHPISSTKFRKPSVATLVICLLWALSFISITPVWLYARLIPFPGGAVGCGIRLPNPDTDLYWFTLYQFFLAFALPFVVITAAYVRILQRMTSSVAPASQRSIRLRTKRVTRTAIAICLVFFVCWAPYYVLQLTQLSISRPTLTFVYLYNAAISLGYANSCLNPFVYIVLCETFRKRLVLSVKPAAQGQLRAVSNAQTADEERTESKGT
measurement_type: IC50 (nM)
Kindly answer with a numeric value in nM, unit omitted.

Request: Using the record for CN(C)c1nc(NCC2CCC(CNS(=O)(=O)c3ccc(Br)cc3OC(F)(F)F)CC2)nc2ccccc12 (trans isomer) , report its IC50.
Result: 140

* * *

I'd appreciate it if you could supply IC50 values for the items below.
# target_entity: Neuropeptide Y receptor type 5 (Homo sapiens)
# Sequence (Q15761 whole entry): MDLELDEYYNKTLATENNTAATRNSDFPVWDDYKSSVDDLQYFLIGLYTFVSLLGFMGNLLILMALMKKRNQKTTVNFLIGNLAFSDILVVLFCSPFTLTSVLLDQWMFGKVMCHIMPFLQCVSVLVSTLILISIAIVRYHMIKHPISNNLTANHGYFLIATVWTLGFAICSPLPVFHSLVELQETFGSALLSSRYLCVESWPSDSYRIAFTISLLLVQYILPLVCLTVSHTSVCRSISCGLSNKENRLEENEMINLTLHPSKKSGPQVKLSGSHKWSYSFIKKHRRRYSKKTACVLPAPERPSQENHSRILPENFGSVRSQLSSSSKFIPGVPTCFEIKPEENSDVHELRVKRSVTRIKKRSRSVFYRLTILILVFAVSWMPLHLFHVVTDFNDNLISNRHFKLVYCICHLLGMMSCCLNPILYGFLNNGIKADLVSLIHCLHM
# protocol_text: Inhibitory activity against constitutively activated human Neuropeptide Y receptor Y5 transiently expressed in COS-1 cells using [125I]PYY
Kindly answer with a numeric value in nM, unit omitted.

Request: Using the record for CN(C)c1nc(NC2CCC(NS(=O)(=O)c3ccc(Br)cc3OC(F)(F)F)CC2)nc2ccccc12 (trans isomer) , report its IC50.
Result: 31

Request: Using the record for CCCCS(=O)(=O)NCC1CCC(CNc2nc(N(C)C)c3ccccc3n2)CC1 (trans isomer) , report its IC50.
Result: 4.9

Request: Using the record for O=S(=O)(NCC1CCC(CNc2ncc3ccccc3n2)CC1)c1ccc(Br)cc1OC(F)(F)F (trans isomer) , report its IC50.
Result: 78

Request: Using the record for CN(C)c1nc(NCC2CCC(CNS(=O)(=O)c3ccc(Br)cc3OC(F)(F)F)CC2)nc2ccccc12 (trans isomer) , report its IC50.
Result: 2.7

Request: Using the record for `CN(C)c1nc(NCC2CCN(S(=O)(=O)c3ccc(Br)cc3OC(F)(F)F)CC2)nc2ccccc12` , report its IC50.
Result: 3000

Request: Using the record for `CN(C)c1nc(NC2CCN(S(=O)(=O)c3ccc(Br)cc3OC(F)(F)F)CC2)nc2ccccc12` , report its IC50.
Result: 8900

Request: Using the record for Nc1nc(NCC2CCC(CNS(=O)(=O)c3ccc(Br)cc3OC(F)(F)F)CC2)nc2ccccc12 (trans isomer) , report its IC50.
Result: 1.6

Request: Using the record for CN(C)c1nc(NC2CCC(CNS(=O)(=O)c3ccc(Br)cc3OC(F)(F)F)CC2)nc2ccccc12 (stereo not given) , report its IC50.
Result: 150

Request: Using the record for CN(C)c1nc(NCC2CCC(NS(=O)(=O)c3ccc(Br)cc3OC(F)(F)F)CC2)nc2ccccc12 (trans isomer) , report its IC50.
Result: 2.5

Request: Using the record for CN(C)c1nc(NCC2CCC(CNS(C)(=O)=O)CC2)nc2ccccc12 (stereo not given) , report its IC50.
Result: 41

* * *

# target_entity: Melanin-concentrating hormone receptor 1 (Homo sapiens, UniProt Q99705)
# protocol_text: Inhibitory activity against human wild type Melanin concentrating hormone receptor 1 (CA-MCH-R1) stably expressed in HEK293 cells using [125I](Phe13, Tyr19) MCH (n=3)
# Type: cell-based
measurement_type: pIC50
Just so you know, pIC50 here is -log10 of the concentration in molar units; reply with that number alone.

Request: Using the record for CN(C)c1nc(NCC2CCC(CNS(=O)(=O)c3ccc(Br)cc3OC(F)(F)F)CC2)nc2ccccc12 (trans isomer) , report its pIC50.
Result: 6.70

* * *

# target_entity: Melanin-concentrating hormone receptor 1 (Homo sapiens)
# protocol_text: Inhibitory activity against mutated constitutively activated human Melanin concentrating hormone receptor 1 (CA-MCH-R1) stably expressed in HEK293 cells using [125I](Phe13, Tyr19) MCH
# Format: cell-based
# Sequence (Q99705 whole entry, looked up): as the sequence (Q99705 whole entry) above
measurement_type: pIC50
Just so you know, pIC50 here is -log10 of the concentration in molar units; reply with that number alone.

Request: Using the record for CCCCS(=O)(=O)NCC1CCC(CNc2nc(N(C)C)c3ccccc3n2)CC1 (trans isomer) , report its pIC50.
Result: 5.54

Request: Using the record for `CN(C)c1nc(NCC2CCN(S(=O)(=O)c3ccc(Br)cc3OC(F)(F)F)CC2)nc2ccccc12` , report its pIC50.
Result: 5.22

Request: Using the record for CCCCCCCCS(=O)(=O)NCC1CCC(CNc2nc(N(C)C)c3ccccc3n2)CC1 (trans isomer) , report its pIC50.
Result: 5.17

Request: Using the record for CN(C)c1nc(NCC2CCC(NS(=O)(=O)c3ccc(Br)cc3OC(F)(F)F)CC2)nc2ccccc12 (trans isomer) , report its pIC50.
Result: 6.09

Cited source for all entries: ChEMBL document CHEMBL1145250
